Target: CaRvs167-3
Test: SPOT peptide array binding signal intensity (averaged, normalized) (arbitrary units (background-subtracted, floor 0; scale differs between SH3 domains)); higher = stronger binding of the SH3 domain to the peptide
Class (by SPOT peptide array binding signal intensity) -- 0: < 4; 1: ≥ 4 and < 30; 2: ≥ 30

>>> assignedclass("KWVRRPKLMTPLTFS")
1
>>> assignedclass("NILKRRPLKLEAPSK")
1
>>> assignedclass("DRIRMFIRFPKFLLE")
2
>>> assignedclass("SRQAIPPPVPNRPGG")
0
>>> assignedclass("RPPRPPPKPLHLRTE")
1

Task item: Please let me know in which category the item "KKEKKPPKIPKKVYT" belongs.
Reply: 1
